Origin of the recorded values: PubChem BioAssay AID330

Test system: P388 leukemia ip, CD2F1 mice, survival T/C
Experimental Details: NCI In Vivo Anticancer Drug Screen. Data for tumor model P388 Leukemia (intraperitoneal) in CD2F1 (CDF1) mice
Condition Info: endpoint: median survival time; dose: 50.0 mg/kg/injection; schedule: Q01DX009 (ip); vehicle: saline with Tween-80
Inconclusive results and toxic doses are left out. The calls were made as follows: active = survival T/C of 150% or more; inactive = T/C below 125% in these data.
Pick from 1 (active), -1 (inactive) when you respond.

Observe how each entry below is paired with its result.
NC(=S)NNC(=O)C(Cc1ccccc1)NC(=O)OCc1ccccc1 (configuration not stated) ... -1
CC(=O)OC1SC(OC(C)=O)C2OC(=O)OC12 (configuration not stated) ... -1
CC(C)(C)SC(=O)c1ccco1 ... -1
CN(C)c1nc(N(C)C)n2c(-c3ccccc3[N+](=O)[O-])nnc2n1 ... -1
NC(=O)c1ccc(C(N)=O)cc1 ... -1

# ---- query molecule ----
Task: Kindly provide the recorded test outcome for the following molecule: c1ccc2c(c1)ccc1c(-c3ccncc3)n[nH]c12
Result: -1

====

Tested on: P388 leukemia ip, CD2F1 mice, survival T/C
Experimental Details: NCI In Vivo Anticancer Drug Screen. Data for tumor model P388 Leukemia (intraperitoneal) in CD2F1 (CDF1) mice
Condition Info: endpoint: median survival time; dose: 100.0 mg/kg/injection; schedule: Q01DX001 (ip); vehicle: saline
Toxic doses and inconclusive results are not listed. The calls were made as follows: active = survival T/C of 150% or more; inactive = T/C below 125% in these data.
Pick from active, inactive when you respond.

C=C1CC2(CC3(C(C)C)CC3C2C)OC1=O (configuration not stated) ... inactive

Task: Kindly provide the recorded test outcome for the following molecule: CCOP(=O)(Nc1ccc(C)cc1)OCC
Result: inactive

Task: Kindly provide the recorded test outcome for the following molecule: Cc1cc(N2CCOCC2)ccc1N=Nc1nc2ccccc2s1
Result: inactive

Task: Kindly provide the recorded test outcome for the following molecule: CCN(CC)Cc1cc(Nc2nc(/C=C/c3ccc(Cl)cc3)nc(Cl)c2-c2ccc(Cl)cc2)ccc1O
Result: inactive

Task: Kindly provide the recorded test outcome for the following molecule: Cc1nccc2cccc(CNC(C)C)c12
Result: inactive

Task: Kindly provide the recorded test outcome for the following molecule: O=c1n(CC2CO2)c(=O)n(CC2CO2)c(=O)n1CC1CO1 (configuration not stated)
Result: active

Task: Kindly provide the recorded test outcome for the following molecule: CCC(C)(S)CN (configuration not stated)
Result: inactive

====

Test system: P388 leukemia ip, CD2F1 mice, survival T/C
Experimental Details: NCI In Vivo Anticancer Drug Screen. Data for tumor model P388 Leukemia (intraperitoneal) in CD2F1 (CDF1) mice
Condition Info: endpoint: median survival time; dose: 200.0 mg/kg/injection; schedule: Q01DX009 (ip); vehicle: other; higher = longer survival
Inconclusive results and toxic doses are left out.
Quantity Name: T/C

Cc1ccc(S(=O)(=O)NC(CNC(N)=O)C(=O)O)cc1 (stereo unspecified) ... 96 % of control
CCOC(=O)Nc1cc(Cl)c2[nH]c(=O)[nH]c2n1 ... 100 % of control
CCOC(=O)C(CC(C)C(C)=O)C(=O)OCC (stereo unspecified) ... 103 % of control

Task: Which value of T/C has been reported for CC(=O)OC1(C)CC2(CCCCC2)N=N1 (stereo unspecified) in the records?
Result: 107 % of control

Task: Which value of T/C has been reported for Cc1cccc(CC(C)(O)Cc2cccc(C)n2)n1 in the records?
Result: 122 % of control

Task: Which value of T/C has been reported for CC1=NC(c2ccccn2)=NNC(c2ccccn2)=C1c1ccccc1 in the records?
Result: 114 % of control
